Reported IC50 values follow for various molecules
target: IRAK4 kinase (Homo sapiens (Human), UniProt Q9NWZ3); assay: IRAK4 Kinase Inhibition Assay (Cisbio HTRF KinEASE-STK S1 kit); format: biochemical; settings: IRAK4 kinase protein 10 nM, ATP 200 μM, STK Substrate 1-biotin 1 μM, 37° C. 2 h, read-out: IC50 (nM), IRAK4 kinase inhibitory activity
Sequence (Q9NWZ3 whole entry): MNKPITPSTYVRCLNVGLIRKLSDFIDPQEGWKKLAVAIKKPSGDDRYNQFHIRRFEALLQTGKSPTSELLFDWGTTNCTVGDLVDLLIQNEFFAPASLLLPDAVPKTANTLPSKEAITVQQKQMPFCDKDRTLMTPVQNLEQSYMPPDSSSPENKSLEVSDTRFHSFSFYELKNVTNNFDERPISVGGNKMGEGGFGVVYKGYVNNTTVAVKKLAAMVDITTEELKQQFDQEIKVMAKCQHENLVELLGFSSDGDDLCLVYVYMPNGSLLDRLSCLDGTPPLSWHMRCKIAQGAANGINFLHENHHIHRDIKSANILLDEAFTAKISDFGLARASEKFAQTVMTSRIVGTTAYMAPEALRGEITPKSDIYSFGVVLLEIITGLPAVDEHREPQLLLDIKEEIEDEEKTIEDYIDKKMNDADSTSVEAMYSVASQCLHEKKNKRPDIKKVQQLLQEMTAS

Consider the following illustrative entries.
> print(dat)
                                   molecule          result
1  OCC1CCC(n2cc(-n3cc(-c4cnn5ccc(N6CCC[C@H](O)C6)nc45)nn3)c(C(F)F)n2)CC1 (stereo partly shown) [Compound 112A]        < 100 nM
2  N#Cc1cnc2c(-c3cn(-c4cn(C5CCCCC5)nc4C(F)F)nn3)cnn2c1 [Compound 3A]  100 to 1000 nM

Query: What IC50 appears in the records for this molecule with IRAK4 kinase (Homo sapiens (Human), UniProt Q9NWZ3)? NC(=O)c1cnc2c(ccn2-c2cn(-c3cn(C4CCCCC4)nc3C(F)F)nn2)c1 [Compound 65A]
Reply: 100 to 1000 nM

Query: Could you do the same for CC1(C)C[C@H](n2cc(-n3cc(-c4cnn5ccc(N6CCOCC6)nc45)nn3)c(C(F)F)n2)CCN1 [Compound 86A] , please?
Reply: 100 to 1000 nM

Query: Could you do the same for OC[C@H]1CC[C@H](n2cc(-n3cc(-c4cnn5ccc(N6CC7(COC7)C6)nc45)nn3)c(C(F)F)n2)CC1 [Compound 90A] , please?
Reply: 100 to 1000 nM

Query: Could you do the same for OC[C@H]1CC[C@H](n2cc(-n3cc(-c4cnn5ccc(N6CCCC(O)C6)nc45)nn3)c(C(F)F)n2)CC1 (stereo partly shown) [Compound 100A] , please?
Reply: < 100 nM

---

molecular target: IRAK4 kinase (Homo sapiens (Human), UniProt Q9NWZ3); experiment: IRAK4 Kinase Inhibition Assay (Cisbio HTRF KinEASE-STK S1 kit); type: biochemical; settings: IRAK4 kinase protein 10 nM, ATP 200 μM, STK Substrate 1-biotin 1 μM, 37° C. 2 h, read-out: IC50 (nM), IRAK4 kinase inhibitory activity
Where a name gives a salt, the structure may show the parent alone.
Reported IC50 values follow for various compounds

Consider the following illustrative entries.
> print(dat)
                                   compound           result
1  CC1(C)CC(n2cc(-n3cc(-c4cnn5ccc(N6CCOCC6)nc45)nn3)c(C(F)F)n2)CCN1 (stereo not shown) [Compound 85A]         < 100 nM
2  OC[C@H]1CC[C@H](n2cc(-n3cc(-c4cnn5ccc(N6CCOCC6)nc45)nn3)c(C(F)F)n2)CC1 [Compound 104A]         < 100 nM
3  OC[C@H]1CC[C@H](n2cc(-n3cc(-c4cnn5ccc(NCC6CC6)nc45)nn3)c(C(F)F)n2)CC1 [Compound 94A]         < 100 nM
4  C[C@H]1CN(c2ccn3ncc(-c4cn(-c5cn(C6CCCCC6)nc5C(F)F)nn4)c3n2)CCO1 [Compound 83A]   100 to 1000 nM
5  O=C(c1cnn2c(-c3cn(-c4cn(C5CCCCC5)nc4C(F)F)nn3)ccc2c1)N1CCNCC1 [Compound 64A]  1000 to 5000 nM
6  O=C(NC1CNCC1(F)F)c1cnn2c(-c3cn(-c4cn(C5CCCCC5)nc4C(F)F)nn3)ccc2c1 (stereo not shown) [Compound 68A]  1000 to 5000 nM
7  OCC1CCC(n2cc(-n3cc(-c4cnn5ccc(N[C@H]6CCCC[C@H]6O)nc45)nn3)c(C(F)F)n2)CC1 (stereo partly shown) [Compound 107A]         < 100 nM
8  CC(C)(O)CCNc1ccn2ncc(-c3cn(-c4cn([C@H]5CC[C@H](CO)CC5)nc4C(F)F)nn3)c2n1 [Compound 92A]         < 100 nM

Query: What IC50 appears in the records for this compound with IRAK4 kinase (Homo sapiens (Human), UniProt Q9NWZ3)? CC1(C)C[C@@H](n2cc(-n3cc(-c4cnn5ccc(N6CCOCC6)nc45)nn3)c(C(F)F)n2)CCN1 [Compound 87A]
Reply: 100 to 1000 nM

Query: Could you do the same for NC1CN(c2ccn3ncc(-c4cn(-c5cn([C@H]6CC[C@H](CO)CC6)nc5C(F)F)nn4)c3n2)CC(F)(F)C1 (stereo partly shown) [Compound 108A] , please?
Reply: < 100 nM

Query: Could you do the same for C[C@@H]1C[C@@H](n2cc(-n3cc(-c4cnn5ccc(N6CCOCC6)nc45)nn3)c(C(F)F)n2)CCN1 [Compound 72A] , please?
Reply: < 100 nM

Query: Could you do the same for OCC1CCC(n2cc(-n3cc(-c4cnn5ccc(N6CC7CC[C@H](C6)O7)nc45)nn3)c(C(F)F)n2)CC1 (stereo partly shown) [Compound 99A] , please?
Reply: 100 to 1000 nM

Query: Could you do the same for C[C@@H]1CC(n2cc(-n3cc(-c4cnn5ccc(N6CCOCC6)nc45)nn3)c(C(F)F)n2)CCN1 (stereo partly shown) [Compound 80A, hydrochloride] , please?
Reply: 100 to 1000 nM

---

target: IRAK4 kinase (Homo sapiens (Human), UniProt Q9NWZ3); experiment: IRAK4 Kinase Inhibition Assay (Cisbio HTRF KinEASE-STK S1 kit); assay type: biochemical; settings: IRAK4 kinase protein 10 nM, ATP 200 μM, STK Substrate 1-biotin 1 μM, 37° C. 2 h, read-out: IC50 (nM), IRAK4 kinase inhibitory activity
REPORTED_METRIC: IC50

Query: What IC50 appears in the records for this compound with IRAK4 kinase (Homo sapiens (Human), UniProt Q9NWZ3)? Cn1cc(-n2cc(-c3cnn4ccc(N5C[C@H]6C[C@@H]5CO6)nc34)nn2)c(C(F)F)n1 [Compound 46A]
Reply: 1000 to 5000 nM

Query: Could you do the same for FC(F)c1nn(C2CCNCC2)cc1-n1cc(-c2cnn3ccc(N4CCOCC4)nc23)nn1 [Compound 69A] , please?
Reply: 100 to 1000 nM

Query: Could you do the same for N#Cc1cnc2c(ccn2-c2cn(-c3cn(C4CCCCC4)nc3C(F)F)nn2)c1 [Compound 43A] , please?
Reply: 1000 to 5000 nM

Query: Could you do the same for OC[C@H]1CC[C@H](n2cc(-n3cc(-c4cnn5ccc(N6CCCOCC6)nc45)nn3)c(C(F)F)n2)CC1 [Compound 98A] , please?
Reply: < 100 nM

Query: Could you do the same for CC1(C)CN(c2ccn3ncc(-c4cn(-c5cn(C6CCC(CO)CC6)nc5C(F)F)nn4)c3n2)CCO1 (stereo not drawn) [Compound 89A] , please?
Reply: 100 to 1000 nM

Query: Could you do the same for O=S1(=O)CCN(c2ccn3ncc(-c4cn(-c5cn([C@H]6CC[C@H](CO)CC6)nc5C(F)F)nn4)c3n2)CC1 [Compound 91A] , please?
Reply: 100 to 1000 nM

Query: Could you do the same for C[C@H]1CN(c2ccn3ncc(-c4cn(-c5cn(C6CCC(CO)CC6)nc5C(F)F)nn4)c3n2)C[C@H](C)O1 (stereo partly drawn) [Compound 109A] , please?
Reply: < 100 nM

Query: Could you do the same for C[C@H]1CC(n2cc(-n3cc(-c4cnn5ccc(N6CCOCC6)nc45)nn3)c(C(F)F)n2)CCN1 (stereo partly drawn) [Compound 79A] , please?
Reply: 100 to 1000 nM

Query: Could you do the same for OCC1CCC(n2cc(-n3cc(-c4cnn5ccc(N6C[C@H]7C[C@@H]6CO7)nc45)nn3)c(C(F)F)n2)CC1 (stereo partly drawn) [Compound 105A] , please?
Reply: 100 to 1000 nM
